Numbers sourced from patent US20240400689A1.

Biological target: T1, human CD276 protein (human, UniProt Q5ZPR3 29-534)
T1 sequence (looked up): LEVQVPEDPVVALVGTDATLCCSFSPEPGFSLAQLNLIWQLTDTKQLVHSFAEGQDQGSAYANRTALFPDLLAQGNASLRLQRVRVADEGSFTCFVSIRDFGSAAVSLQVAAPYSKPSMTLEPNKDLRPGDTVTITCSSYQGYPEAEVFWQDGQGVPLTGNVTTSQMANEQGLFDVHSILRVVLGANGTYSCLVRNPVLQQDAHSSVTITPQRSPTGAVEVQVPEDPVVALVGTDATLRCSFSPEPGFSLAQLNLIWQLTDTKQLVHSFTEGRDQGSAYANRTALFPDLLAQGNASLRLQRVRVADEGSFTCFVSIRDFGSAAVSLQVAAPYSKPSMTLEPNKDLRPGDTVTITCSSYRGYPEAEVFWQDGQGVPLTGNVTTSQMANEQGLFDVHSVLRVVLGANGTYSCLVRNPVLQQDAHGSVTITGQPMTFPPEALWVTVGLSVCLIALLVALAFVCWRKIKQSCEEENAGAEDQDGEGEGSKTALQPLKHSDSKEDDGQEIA
Assay: cell-based or functional assay
attribute-measured: EC50 of antibody induced ADCC effect on SKOV3 (µg/mL)
Supply the numeric figure in µg/mL, leaving out any unit text.

input: Which EC50 of antibody induced ADCC effect on SKOV3 value belongs to 16-C6-F7-F5 (human IgG1 chimeric antibody) (antibody, V domains shown, human IgG1 chimeric antibody of the mouse clone) VH: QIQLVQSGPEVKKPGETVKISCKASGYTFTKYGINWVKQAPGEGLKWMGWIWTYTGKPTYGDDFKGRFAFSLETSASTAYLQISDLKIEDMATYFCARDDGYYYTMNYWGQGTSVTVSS VL: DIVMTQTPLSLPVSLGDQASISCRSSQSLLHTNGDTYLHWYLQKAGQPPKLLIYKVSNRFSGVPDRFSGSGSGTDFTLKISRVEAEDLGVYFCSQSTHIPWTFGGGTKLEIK ?
output: 0.00664

input: Quick one: EC50 of antibody induced ADCC effect on SKOV3 of 15-G1-D1-E3 (human IgG1 chimeric antibody) (antibody, V domains shown, human IgG1 chimeric antibody of the mouse clone) VH: QVQLQQPGAELVKPGTSVKLSCKASGYTFTSYWIHWVKQRPGQGLEWIGMIHPKSGTVDYNEKFKSKATLTADKSSNTAYMQLSSLTSEASVVYYCARGENYDYRPQFVYWGQGTLVTVSA VL: QLVLTQSSSASFSLGASAKLTCTLSSQHSTYTIEWYQQQPLKPPKYVMELKKDGSHRTGDGIPDRFSGSSSGADRYLSISNIQPEDEAIYICGVGDTIKEQFVYVFGGGTKVTVL ?
output: 0.0655

input: Given the entry 20-C5-D7-D3 (human IgG1 chimeric antibody) (antibody, V domains shown, human IgG1 chimeric antibody of the mouse clone) VH: EVQLVESGGDLVKPGGSLKLSCAASGFTFRSYGMSWVRQTPDKRLEWVATISGGGNYTYYPDSVKGRFTISRDNAKNTLYLQMSSLKSEDTAMYYCARHEGLPLDYWGQGTTLTVSS VL: DIQMTQSPASLSASVGETVTITCRASENIYSYLAWYQQKQGKSPQLLVYNAKTLAEGVPSRFSGSGSGTQFSLKINSLQPEDFGNFYCQHHYGTPTWTFGGGTKLEIK , report its measured EC50 of antibody induced ADCC effect on SKOV3.
output: 0.069

input: // EC50 of antibody induced ADCC effect on SKOV3 lookup, key: 27-E7-D8-C7 (human IgG1 chimeric antibody) (antibody, V domains shown, human IgG1 chimeric antibody of the mouse clone) VH: EVQLQESGPELVRPGVSVKISCKGSGYTFTDYAMHWVKQSHAKSLEWIGVINTYSDNTNYNRKFKGKATMTVDKSSSTAYMELARLTSEDSAIYYCARGLLLRSQLGVYFDYWGQGTTLTVSS VL: QIVLSQSPAILSASPGEKVTMTCRASSSVSYMHWYQQKPGSSPKPWIYATSNLASGVPARFSGSGSGTSYSLTISRVEAEDAATYYCQQWSSNPWTFGGGTKLEIK
output: 0.103
